# Tested on: ACHN renal
# protocol.description: NCI tumour cell line growth inhibition, 48 h; in the data active = GI50 below about 0.43 µM; inactive = the rest
Outcomes: yes = active, no = inactive

Cn1cnc([N+](=O)[O-])c1S(=O)(=O)Oc1cccc2ccccc12 : no
CCN(CC)c1ccc(-c2cc(-c3cc(OC)c(OC)c(OC)c3)nc(N3CCOCC3)c2C#N)cc1 : no
COc1cc(/C=C2\CN(S(=O)(=O)c3ccccc3)C/C(=C\c3cc(CN4CCCC4)c(O)c(OC)c3)C2=O)cc(CN2CCCC2)c1O : no
COc1cc2c3c(n(C)c(=O)c2cc1OC)-c1cc2c(cc1/C3=C\CCCN)OCO2 : no
O=C(/C=C/c1ccncc1)c1cc(Cl)ccc1O : no
COc1cccc(-c2nc(-c3ccc(NC(=O)C(C)C)cc3)[nH]c2-c2ccnc(Br)c2)c1 : no
O=C1OC(O)[C@@H]2[C@H]1[C@H]1CC[C@@H]2O1 (some centres undefined) : no
Cc1cccc(NC(=O)Cn2cnc3sc(C(=O)OC(C)C)c(C)c3c2=O)c1 : no
Nc1ncnc2n[nH]c(Nc3ccc(F)cc3)c12 : no
Cc1c2c(nn1-c1ccc(S(=O)(=O)/N=C3\SCCC(=O)N3c3ccccc3)cc1)-c1ccccc1CC2 : no
CCN1CCN(c2nc(C)cc(N(CCNc3ccnc4cc(Cl)ccc34)Cc3ccc4c(c3)OCO4)n2)CC1 : no
O=C1c2cc3c(cc2-c2c1c1ccc(F)cc1c(=O)n2CCCNCCO)OCO3 : yes
COc1ccc(-c2nnc(COc3ccc(NC(=O)Nc4cc(C(F)(F)F)cc(C(F)(F)F)c4)cc3F)o2)cc1 : no
Cc1cc2c(cc1Cl)SC(N(N(C)C)S(=O)(=O)c1ccc(Cl)cc1)=NS2(=O)=O : no
